Kindly supply the reported combination Emax values for the records listed here.
# Test system: ETK-1 (Biliary Tract Carcinoma)
# ASSAY: combination Emax (second highest fraction inhibited in the dose matrix, 72 h); higher = more inhibition; extreme values may be limits of the assay
The answer should be written as a number, with no unit following it.

Q: What does the data say about its combination Emax? Entry: CC(=O)c1c(C)c2cnc(Nc3ccc(N4CCNCC4)cn3)nc2n(C2CCCC2)c1=O [Palbociclib] + Cc1c2c(nn1C)CSCc1cc(n(C)n1)CSc1cc(c3ccccc3c1)OCCCc1c(C(=O)O)n(C)c3c-2c(Cl)ccc13 [AZD5991] (first compound max 10 µM, 7x7, partner max 1 µM)
A: 0.303

Q: What does the data say about its combination Emax? Entry: C[C@@H](c1ccc2nccn2c1)n1nnc2ncc(-c3cnn(C)c3)nc21 [Savolitinib] + Cc1c2c(nn1C)CSCc1cc(n(C)n1)CSc1cc(c3ccccc3c1)OCCCc1c(C(=O)O)n(C)c3c-2c(Cl)ccc13 [AZD5991] (first compound max 1 µM, 7x7, partner max 1 µM)
A: 0.141

Q: What does the data say about its combination Emax? Entry: COc1cc2c(cc1OCCCCCOc1cc3c(cc1OC)C(=O)N1C=C(C)C[C@H]1C=N3)N=C[C@@H]1CC(C)=CN1C2=O [SG3199] + O=C(c1cc(Cc2n[nH]c(=O)c3ccccc23)ccc1F)N1CCN(C(=O)C2CC2)CC1 [Olaparib] (first compound max 0.001 µM, 7x7, partner max 10 µM)
A: 0.188

Q: What does the data say about its combination Emax? Entry: CCc1c2c(nc3ccc(O)cc13)-c1cc3c(c(=O)n1C2)COC(=O)[C@]3(O)CC [SN-38] + CN(C)CCCOc1ccc(-c2ccc3ncc4c(c3c2)n(C2CCOCC2)c(=O)n4C)cn1 [AZD0156] (first compound max 0.3 µM, 7x7, partner max 1 µM)
A: 0.572

Q: What does the data say about its combination Emax? Entry: NC1(C(=O)N[C@@H](CCO)c2ccc(Cl)cc2)CCN(c2ncnc3[nH]ccc23)CC1 [Capivasertib] + CC(=O)c1c(C)c2cnc(Nc3ccc(N4CCNCC4)cn3)nc2n(C2CCCC2)c1=O [Palbociclib] (first compound max 10 µM, 7x7, partner max 10 µM)
A: 0.419

Q: What does the data say about its combination Emax? Entry: Cc1nc(Nc2ncc(C(=O)Nc3c(C)cccc3Cl)s2)cc(N2CCN(CCO)CC2)n1 [Dasatinib] + CC(=O)Nc1cccc(-n2c(=O)n(C3CC3)c(=O)c3c(Nc4ccc(I)cc4F)n(C)c(=O)c(C)c32)c1 [Trametinib] (first compound max 2 µM, 7x7, partner max 1 µM)
A: 0.781

Q: What does the data say about its combination Emax? Entry: Cc1cc2ncnn2cc1Nc1ncc2c(n1)n(C1CCOCC1)c(=O)n2C [AZD7648] + O=C(c1cc(Cc2n[nH]c(=O)c3ccccc23)ccc1F)N1CCN(C(=O)C2CC2)CC1 [Olaparib] (first compound max 10 µM, 7x7, partner max 10 µM)
A: 0.323

###

# System: CS1 (Chondrosarcoma)
# ASSAY: combination Emax (second highest fraction inhibited in the dose matrix, 72 h); higher = more inhibition; extreme values may be limits of the assay
QUANTITY MEASURED: combination Emax
The answer should be written as a number, with no unit following it.

Q: What does the data say about its combination Emax? Entry: Cc1cc2ncnn2cc1Nc1ncc2c(n1)n(C1CCOCC1)c(=O)n2C [AZD7648] + O=C(c1cc(Cc2n[nH]c(=O)c3ccccc23)ccc1F)N1CCN(C(=O)C2CC2)CC1 [Olaparib] (first compound max 10 µM, 7x7, partner max 10 µM)
A: 0.221

Q: What does the data say about its combination Emax? Entry: Cc1c2c(nn1C)CSCc1cc(n(C)n1)CSc1cc(c3ccccc3c1)OCCCc1c(C(=O)O)n(C)c3c-2c(Cl)ccc13 [AZD5991] + CN(C)CCCOc1ccc(-c2ccc3ncc4c(c3c2)n(C2CCOCC2)c(=O)n4C)cn1 [AZD0156] (first compound max 1 µM, 7x7, partner max 1 µM)
A: 0.235

Q: What does the data say about its combination Emax? Entry: CC1(C)CCC(CN2CCN(c3ccc(C(=O)NS(=O)(=O)c4ccc(NCC5CCOCC5)c([N+](=O)[O-])c4)c(Oc4cnc5[nH]ccc5c4)c3)CC2)=C(c2ccc(Cl)cc2)C1 [Venetoclax] + C=CCn1c(=O)c2cnc(Nc3ccc(N4CCN(C)CC4)cc3)nc2n1-c1cccc(C(C)(C)O)n1 [AZD1775] (first compound max 1 µM, partner max 1 µM)
A: 0.682
